# Test system: S. pneumoniae ATCC 51916
# MEASUREMENT NOTES: MIC, S. pneumoniae
# Format: cell-based
# RUN CONDITIONS: S. pneumoniae
Please note: MIC Spn52 exactly at 30 µg/mL is F. Only values below 30 µg/mL get T.

COMPOUND	LABEL CLASS
CCOc1nc(Sc2nc(C(=O)OC)c(C(C)C)s2)nc2[nH]c(CC)c(Cl)c12 [700,302]	F
CCOc1nc(Nc2cnc3c(c2)nnn3CC2CC2)nc2[nH]c(CC)c(Br)c12.O=C(O)C(F)(F)F [700,476]	F
CCOc1nc(Nc2cnc3c(c2)c(=O)n(C)c(=O)n3C)nc2[nH]c(CC)c(Br)c12.O=C(O)C(F)(F)F [700,452]	F

Here's an entry: CCc1[nH]c2nc(Nc3cnc4c(c3)nnn4CC3CC3)nc(N3CC(S(=O)(=O)CC4CC4)C3)c2c1Br.O=C(O)C(F)(F)F [700,496] . Is its MIC Spn52 below 30 µg/mL?
F

How about this compound: CCc1[nH]c2nc(Nc3cnc4c(c3)nnn4C(C)C)nc(N3CC(NC(=O)O)C3)c2c1Cl.O=C(O)C(F)(F)F [700,526]
F

---

# Test system: S. aureus ATCC 13709
# MEASUREMENT NOTES: MIC, antibacterial potency, S. aureus
# Assay type: cell-based
# RUN CONDITIONS: S. aureus (SA); in µg/mL
READOUT LABEL: MIC, SA

Check out these entries, answers already filled in.
COMPOUND	MIC, SA
CCc1[nH]c2nc(Sc3ccc4c(N)nc(CN5CCC(N)CC5)nc4c3)nc(N3CC[C@@H](N)C3)c2c1Cl [700,846]	>64
CCc1[nH]c2nc(Sc3ccc4cncnc4c3)nc(N3CC(N)C3)c2c1Cl [701,050]	<=0.5
CCc1[nH]c2nc(Sc3cnc4cccnc4c3)nc(N3CCC(CNC(C)=O)C3)c2c1Cl (stereo not drawn) [701,044]	<=0.5
CCc1[nH]c2nc(Oc3ccc4nccnc4c3)nc(N(C)C)c2c1Cl [700,962]	<=0.5
CCc1[nH]c2nc(Oc3ccc4nccnc4c3)nc(Oc3ccc4ncn(C)c4c3)c2c1Cl [701,007]	<=0.5

Proceed to the following item.
// MIC, SA lookup, key: CCc1[nH]c2nc(Oc3cncc(C(=O)O)c3)nc(Oc3cncnc3)c2c1Cl [700,932]
>64

---

# Tested on: S. pneumoniae ATCC 51916
# MEASUREMENT NOTES: MIC, S. pneumoniae
# Type: cell-based
# RUN CONDITIONS: S. pneumoniae
Label key: T means MIC Spn52 under 4 µg/mL; F means MIC Spn52 of 4 µg/mL or more.

Solved entries (count: 2):
MOLECULE	SYSTEM TESTED	LABEL CLASS
CCc1[nH]c2nc(Sc3cccnc3)nc(NC[C@H](C)O)c2c1Br.O=C(O)C(F)(F)F	S. pneumoniae ATCC 51916	F
Cc1[nH]c2nc(Sc3cnc4cccnc4n3)nc(N3CC(O)C3)c2c1C	S. pneumoniae ATCC 51916	F

Find out if reported MIC Spn52 for "CCOc1nc(Sc2ncc(C(=O)O)s2)nc2[nH]c(CC)c(Br)c12" is less than 4 µg/mL
F

How about "CCOc1nc(Nc2nc(C(=O)O)cs2)nc2[nH]c(CC)c(Br)c12.O=C(O)C(F)(F)F" ?
F

Record: "Fc1ccc(Oc2nc(Nc3cccnc3)nc3[nH]cc(Br)c23)c(F)c1.O=C(O)C(F)(F)F"
F

One more molecule: "CCOc1nc(Nc2ccc3cccnc3c2)nc2[nH]c(CC)c(Br)c12.O=C(O)C(F)(F)F"
F

What about "CCc1[nH]c2nc(SC)nc(CCC3OCCCO3)c2c1Br" ?
F
